Reference for the values: PubChem BioAssay (NCI)

test system: T-47D breast; assay: NCI-60 one-dose screen, 48 h (100 = growth as untreated, 0 = no growth, -100 = all killed); conditions: 10 µM unless noted
The panel holds about 83,000 compounds, 20% with a hit somewhere; the sample as a whole holds those more often.
OBSERVATION TYPE: growth (%)
API: value field is a number in %; no unit string.

Task item: Please state recorded growth (tested on T-47D breast) of Cc1ccc2c(c1)C(C)Cc1c(ncnc1-n1cnc3ccccc31)N2C (stereo not given)
Reply: 50.3

Task item: Please state recorded growth (tested on T-47D breast) of COc1ccc(/C=C/C(=O)c2cc(OC)c(OC)c(OC)c2)cc1OCc1cn(Cc2ccc(F)cc2)nn1
Reply: 50.4

Task item: Please state recorded growth (tested on T-47D breast) of COC(=O)c1ccc2nc(-c3cc4ccccc4n3C)n(CCCCOc3cc4c(cc3OC)C(=O)N3CCC[C@H]3C=N4)c2c1
Reply: 4.1

Task item: Please state recorded growth (tested on T-47D breast) of Nc1ccc(S(=O)(=O)c2ccc(Cl)cc2)cc1
Reply: 104

Task item: Please state recorded growth (tested on T-47D breast) of CCCCCCCCCCCCCCCCC(Br)C(=O)O (stereo not given)
Reply: 86.7
